System: Mycobacterium tuberculosis
Experiment: Antitubercular activity against Mycobacterium tuberculosis H37Rv ATCC 27294 assessed as intracellular ATP level after 5 days by luminescence assay
Type: functional
Conditions: Mycobacterium tuberculosis, H37Rv ATCC 27294, 120 h
reported.property: log10 MIC50 (log10 of the value in µM)

molecule | log10 MIC50
NNC(=O)c1ccncc1 [ISONIAZID] | -1.52
O=[N+]([O-])c1cccc(OCc2nnc(SCCCCl)o2)c1 | 1.07
O=[N+]([O-])c1cccc(Cc2nnc(SCCCCl)o2)c1 | 0.87
ClCCCSc1nnc(COc2ccc(Cl)cc2Cl)o1 | -0.19
O=C(CCl)Sc1nnc(Cc2ccc(Cl)cc2Cl)o1 | 0.99
CCCSc1nnc(COc2ccc(Cl)cc2Cl)o1 | -0.20
CCCSc1nnc(Cc2ccc(Cl)cc2Cl)o1 | 0.08
CCCSc1nnc(COc2cccc([N+](=O)[O-])c2)o1 | 0.93
CCCSc1nnc(Cc2cccc([N+](=O)[O-])c2)o1 | 0.83
ClCCCSc1nnc(Cc2ccc(Cl)cc2Cl)o1 | 0.15

---

MIC50: recorded values
Tested on: Mycobacterium tuberculosis
Assay: Antitubercular activity against Mycobacterium tuberculosis H37Rv ATCC 27294 assessed as intracellular ATP level after 5 days by luminescence assay
Assay type: functional
Details: Mycobacterium tuberculosis, H37Rv ATCC 27294, 120 h
reported.property: MIC50

smiles.structure | recorded.measurement
O=C(CCl)Sc1nnc(COc2cccc([N+](=O)[O-])c2)o1 | > 20 µM
O=C(CCl)Sc1nnc(Cc2cccc([N+](=O)[O-])c2)o1 | > 20 µM
O=C(CCl)Sc1nnc(COc2ccc(Cl)cc2Cl)o1 | > 20 µM
